assay details: Cellular viability qHTS for adrenocortical cancer (ACC) cell line NCI-H295R (AID 1963990); further: nearly all actives have a fitted effect of over 60% in size
condition: CellTiter-Glo ATP luminescence, 48 h; series mostly up to 46.1 µM
Results filed as inconclusive are left out. Calls of active or inactive are those of the source. The call rests on the fitted dose curve; in most records, active means well fitted cell-killing curve with a large enough effect; inconclusive means small, poorly fitted or top-dose-only effect; inactive means flat fitted curve, though single readings scatter.
Labels: active, inactive

| compound | assigned category |
| --- | --- |
| CC(C)OP(=O)(CP(=O)(OC(C)C)OC(C)C)OC(C)C | inactive |
| CO/N=C(/C(=O)N[C@@H]1C(=O)N2C(C(=O)OCOC(=O)C(C)(C)C)=C(C)CS[C@H]12)c1csc(N)n1 | inactive |
| Cc1ccc(S(=O)(=O)NC(=O)NC2CCCCC2)cc1 | inactive |
| CC(=O)[C@@]1(O)CC[C@H]2[C@@H]3CCC4=CC(=O)CC[C@]4(C)[C@H]3CC[C@@]21C | inactive |
| C=C[C@H]1CN2CC[C@H]1C[C@@H]2[C@@H](O)c1ccnc2ccc(OC)cc12 | inactive |
| Nc1ncnc2nc(-c3ccc(N4CCOCC4)nc3)cc(-c3cccc(Br)c3)c12 | inactive |
| Nc1ccc(O)c(C(=O)O)c1 | inactive |
| CCOC(=O)c1ccc(NC(=O)CN2CCCCC2)cc1 | inactive |
| c1nc2nc(Nc3ccc(N4CCOCC4)cc3)nc(NC3CCCCC3)c2[nH]1 | active |
| CCOC(CN1CCN(CC(C)C(=O)c2ccccc2)CC1)c1ccccc1 (stereo not given) | inactive |

----------
assay details: Quantitative highthroughput screen to assess conditional lethalithy of NOMO1 cells grown in RPMI1640 with untreated serum (RPMI+s) (AID 1963876); further: nearly all actives have a fitted effect of over 35% in size
condition: NOMO1 AML cells in RPMI+serum, CellTiter-Glo viability, 48 h; series mostly up to 45.8 µM
Inconclusive results are not listed. Active and inactive are the calls of the source. Calls follow the shape of the dose curve; as a rule, active = well fitted cell-killing curve with a large enough effect; inconclusive = small, poorly fitted or top-dose-only effect; inactive = flat fitted curve, though single readings scatter.
Labels: active, inactive

| chemical smiles | assigned category |
| --- | --- |
| O=C(c1ccc(F)cc1)C1CCN(CCn2c(=O)[nH]c3ccccc3c2=O)CC1 | inactive |
| CC(=O)OCC(CCn1cnc2cnc(N)nc21)COC(C)=O | inactive |
| COC(=O)Nc1nc2ccc(C(=O)c3ccccc3)cc2[nH]1 | active |
| CC(=NNC(=S)N1CCC1)c1ccccn1 | active |
| CNC(=O)[C@H](CC1=CN=C2C=CCC=C12)NC(=O)[C@@H](CC(=O)NO)CC(C)C | active |
| COC(=O)[C@@H]1CC2=CC(=O)CC[C@]2(C)[C@@]23O[C@@H]2C[C@@]2(C)[C@H](CC[C@@]24CCC(=O)O4)[C@@H]13 | inactive |
| COC(=O)C[C@](O)(CCCC(C)(C)O)C(=O)O[C@@H]1C(OC)=C[C@]23CCCN2CCc2cc4c(cc2[C@H]13)OCO4 | inactive |
| C[C@]12CCC(=O)C=C1CC[C@@H]1[C@H]2[C@@H](O)C[C@@]2(C)[C@H]1CC[C@]2(O)C(=O)CO | inactive |
| O=C1CCc2cc(OCCCCc3nnnn3C3CCCCC3)ccc2N1 | inactive |

----------
assay details: Quantitative highthroughput screen to assess conditional lethalithy of NOMO1 cells grown in Human Plasma-Like Medium with dialyzed fetal bovine serum (HPLM+ds) (AID 1963878); further: nearly all actives have a fitted effect of over 35% in size
condition: NOMO1 AML cells in HPLM+ds, CellTiter-Glo viability, 48 h; series mostly up to 45.8 µM
Results filed as inconclusive are left out. Active and inactive are the calls of the source. Calls follow the shape of the dose curve; as a rule, active = well fitted cell-killing curve with a large enough effect; inconclusive = small, poorly fitted or top-dose-only effect, or effect the other way; inactive = no such curve, though single readings can be large or run the other way.
Labels: T = active, F = inactive

| compound | assigned category |
| --- | --- |
| COC(=O)N[C@H](C(=O)N[C@@H](Cc1ccccc1)[C@@H](O)CN(Cc1ccc(-c2ccccn2)cc1)NC(=O)[C@@H](NC(=O)OC)C(C)(C)C)C(C)(C)C | F |
| Cc1ccc(C(=O)Nc2ccc(CN3CCN(C)CC3)c(C(F)(F)F)c2)cc1C#Cc1cnc2cccnn12 | T |
| O=C(O)c1cc(=O)c2c(OCC(O)COc3cccc4oc(C(=O)O)cc(=O)c34)cccc2o1 | F |
| CO[C@@H](C(=O)N1Cc2[nH]nc(NC(=O)c3ccc(N4CCN(C)CC4)cc3)c2C1)c1ccccc1 | T |
| Cc1cccc(N(C)C(=S)Oc2ccc3ccccc3c2)c1 | F |
| O=c1[nH]c(=O)n([C@H]2C[C@@H](O)[C@@H](CO)O2)cc1I | T |
| O=c1c(O)c(-c2ccc(O)cc2)oc2cc(O)cc(O)c12 | F |
| CC[C@H](C=C[C@@H](C)[C@H]1CC[C@H]2[C@@H]3CC=C4C[C@@H](O)CC[C@]4(C)[C@@H]3CC[C@]12C)C(C)C | T |
| O[C@@H](CNC[C@H](O)[C@H]1CCc2cc(F)ccc2O1)[C@@H]1CCc2cc(F)ccc2O1 | T |
| OC(CN1CCN(c2cccc(Cl)c2)CC1)C(c1ccccc1)c1ccccc1 (stereo not drawn) | T |
| COc1cc(F)c(C(C)C)cc1-c1ccc(C(F)(F)F)cc1CN1C(=O)O[C@H](c2cc(C(F)(F)F)cc(C(F)(F)F)c2)[C@@H]1C | F |
| CN1C(=O)C[C@H](C(=O)N[C@@H](Cc2cnc[nH]2)C(=O)N2CCC[C@@H]2C(N)=O)NC1=O | F |
| COc1nc(C)nc(Cl)c1NC1=NCCN1 | F |
| COc1cccc(OC)c1-c1cc(C(=O)NC2(C(=O)O)C3CC4CC(C3)CC2C4)nn1-c1ccnc2cc(Cl)ccc12 (stereo not drawn) | F |
| CCC[C@H](NC(=O)C(C#N)=Cc1cccc(Br)n1)c1ccccc1 | T |
| CCCCCCCCCCCCCC(=O)N[C@H](CO)[C@H](O)c1ccc([N+](=O)[O-])cc1 | T |
| CC1Cc2ccccc2N1NC(=O)c1ccc(Cl)c(S(N)(=O)=O)c1 (stereo not drawn) | F |
| O=C(NOC[C@H](O)CO)c1ccc(F)c(F)c1Nc1ccc(I)cc1F | T |
